System tested: DNA gyrase subunit B (Staphylococcus aureus, UniProt P0A0K8)
Sequence (P0A0K8 whole entry): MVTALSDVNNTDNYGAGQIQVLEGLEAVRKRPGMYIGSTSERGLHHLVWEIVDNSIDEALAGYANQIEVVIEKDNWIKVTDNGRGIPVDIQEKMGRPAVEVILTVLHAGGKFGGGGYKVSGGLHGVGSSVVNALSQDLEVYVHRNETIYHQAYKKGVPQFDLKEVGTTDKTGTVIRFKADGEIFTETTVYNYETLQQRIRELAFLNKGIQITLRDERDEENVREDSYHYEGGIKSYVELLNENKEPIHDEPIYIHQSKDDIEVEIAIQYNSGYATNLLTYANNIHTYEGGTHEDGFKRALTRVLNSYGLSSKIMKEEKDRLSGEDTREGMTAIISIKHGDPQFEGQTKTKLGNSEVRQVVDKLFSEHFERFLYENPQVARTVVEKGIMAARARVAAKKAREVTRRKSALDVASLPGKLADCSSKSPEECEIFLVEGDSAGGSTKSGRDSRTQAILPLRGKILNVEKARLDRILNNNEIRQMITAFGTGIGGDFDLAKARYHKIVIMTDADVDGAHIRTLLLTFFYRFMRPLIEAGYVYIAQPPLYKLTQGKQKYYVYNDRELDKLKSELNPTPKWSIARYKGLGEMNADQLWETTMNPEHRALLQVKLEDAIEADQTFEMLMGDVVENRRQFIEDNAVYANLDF
Assay text: Inhibition of Staphylococcus aureus DNA gyrase B expressed in Escherichia coli BL21(DE3) cells assessed ATP hydrolysis activity […] by malachite green reagent assay
pIC50: −log10 of the molar value.
Measured property: pIC50

• CCNC(=O)c1cc2c(-n3ccc(C(F)(F)F)n3)c(-c3cncc(C(=O)NC)c3)cnc2[nH]1 = 7.96
• CCNC(=O)c1cc2c(-n3ccc(C(F)(F)F)n3)c(-c3cnc(OC)c(-c4n[nH]c(=O)o4)c3)cnc2[nH]1 = 8.40
• CCNC(=O)c1cc2c(-n3ccc(C(F)(F)F)n3)c(-c3cc(-c4n[nH]c(=O)o4)cnc3OC)cnc2[nH]1 = 8.70
• CCCNC(=O)c1cc2c(-n3ccc(C(F)(F)F)n3)c(-c3cncc(C(=O)O)c3)cnc2[nH]1 = 7.24
• O=C(O)c1cncc(-c2cnc3[nH]c(C(=O)NC4CC4)cc3c2-n2ccc(C(F)(F)F)n2)c1 = 7.41
• CCNC(=O)c1cc2c(-n3nc(C(F)(F)F)cc3C)c(-c3cncc(C(=O)O)c3)cnc2[nH]1 = 6.88

---

Here the recorded logD is given for each entry.
Assay text: Lipophilicity, log D of the compound
Conditions used: octanol/water
Measured property: logD

* O=C(O)/C=C/c1cccc(-c2cnc3[nH]ccc3c2)c1 | 0.58
* CCNC(=O)c1cc2c(-n3ccc(C(F)(F)F)n3)c(-c3cncc(C(=O)NC)c3)cnc2[nH]1 | 2.21
* CCNC(=O)c1cc2c(-n3ccc(C(F)(F)F)n3)c(-c3cncc(-c4n[nH]c(=O)o4)c3)cnc2[nH]1 | 1.65
